- Target desc: PLA2G7 (Mus musculus, UniProt Q60963)
- Construct: Proteomes (mouse brain membrane fraction or cell lysates); from tissue; host or cells: mouse brain membrane fraction (or cell lysates, not specified)
- Sequence (Q60963 22-440): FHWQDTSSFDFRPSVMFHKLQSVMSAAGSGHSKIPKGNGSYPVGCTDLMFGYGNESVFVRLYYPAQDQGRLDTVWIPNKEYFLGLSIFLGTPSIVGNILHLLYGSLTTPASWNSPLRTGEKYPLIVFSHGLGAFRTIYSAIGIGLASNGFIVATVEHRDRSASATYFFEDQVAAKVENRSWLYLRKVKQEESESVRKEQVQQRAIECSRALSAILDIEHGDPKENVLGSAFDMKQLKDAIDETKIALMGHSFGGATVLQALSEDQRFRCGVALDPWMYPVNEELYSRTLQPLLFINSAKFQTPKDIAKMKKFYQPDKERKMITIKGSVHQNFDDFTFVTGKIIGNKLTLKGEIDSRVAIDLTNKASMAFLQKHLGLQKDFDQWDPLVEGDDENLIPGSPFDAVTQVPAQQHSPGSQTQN
- Method notes: In vitro competitive activity-based protein profiling (gel-based, FP-Rh or HT-01 probe)
- Type: biochemical
- Applied conditions: mouse brain membrane fraction or cell lysates, 30 min preincubation at 37° C.
Quantity measured: IC50

Item under review: CCN(Cc1ccc(C)cc1)C(=O)n1cc(C(F)(F)F)cn1 [Example 256] . Reported IC50?
> 1000 nM

And the next one, O=C(N1CCN(Cc2ccccc2C(F)(F)F)CC1)n1cc(C(F)(F)F)cn1 [Example 279] ?
100 to 1000 nM

And the next one, Cc1cc(N2CCOCC2)ccc1CN1CCN(C(=O)n2cc(Cl)cn2)CC1 [Example 218] ?
100 to 1000 nM

And the next one, CN(Cc1cccc(-c2ccncc2)c1)C(=O)n1cc(-c2ccccc2)cn1 [Example 219] ?
< 100 nM

And the next one, O=C(N1CCN(Cc2ccc(-c3ccccc3)cc2Cl)CC1)n1cc(Cl)cn1 [Example 139] ?
> 1000 nM

And the next one, CCN(Cc1cccc(N2CCOCC2)c1)C(=O)n1cc(C(F)(F)F)cn1 [Example 261] ?
> 1000 nM

And the next one, O=C(N1CCN(Cc2ccccc2N2CCCC2)CC1)n1cc(C(F)(F)F)cn1 [Example 280] ?
< 100 nM

And the next one, COc1cccc(N2CCN(C(=O)n3cc(C(F)(F)F)cn3)CC2)c1 [Example 234] ?
< 100 nM

And the next one, CN(Cc1cccc(-c2ccncc2)c1)C(=O)n1cc(Cl)cn1 [Example 220] ?
> 1000 nM

And the next one, CCN(Cc1cccc(C)c1)C(=O)n1cc(C(F)(F)F)cn1 [Example 247] ?
> 1000 nM

And the next one, CCN(Cc1ccc(Cl)cc1)C(=O)n1cc(C(F)(F)F)cn1 [Example 253] ?
> 1000 nM

And the next one, O=C(N1CCN(Cc2cccc(F)c2)CC1)n1cc(C(F)(F)F)cn1 [Example 269] ?
< 100 nM

And the next one, CCN(Cc1cccc(Cl)c1)C(=O)n1cc(C(F)(F)F)cn1 [Example 244] ?
> 1000 nM

* * *

- Target desc: MAGL (Mus musculus)
- Construct: Proteomes (mouse brain membrane fraction or cell lysates); from tissue; host or cells: mouse brain membrane fraction (or cell lysates, not specified)
- Sequence (O35678 1-303): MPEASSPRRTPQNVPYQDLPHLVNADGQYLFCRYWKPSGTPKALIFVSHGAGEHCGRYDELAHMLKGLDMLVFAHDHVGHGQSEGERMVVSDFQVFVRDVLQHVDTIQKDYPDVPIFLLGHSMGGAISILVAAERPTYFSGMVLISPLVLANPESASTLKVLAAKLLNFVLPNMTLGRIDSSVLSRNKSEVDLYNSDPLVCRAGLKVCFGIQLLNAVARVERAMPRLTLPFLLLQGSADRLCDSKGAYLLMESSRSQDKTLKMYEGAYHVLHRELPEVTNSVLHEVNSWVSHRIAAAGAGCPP
- Method notes: In vitro competitive activity-based protein profiling (gel-based, FP-Rh or HT-01 probe)
- Type: biochemical
- Applied conditions: 10 μM inhibitor
Quantity measured: inhibition at 10 µM

Worked set:
{"Molecular string": "N#Cc1cnn(C(=O)N2CCN(C(=O)c3ccccc3)CC2)c1", "inhibition at 10 µM": "> 75%"}
{"Molecular string": "O=C(N1CCCC1)n1cc(-c2ccc(-c3ccccc3)cc2)cn1", "inhibition at 10 µM": "< 25%"}
{"Molecular string": "N#Cc1cnn(C(=O)NCCCc2ccccc2)c1", "inhibition at 10 µM": "< 25%"}
{"Molecular string": "N#Cc1cnn(C(=O)N2CCN(Cc3ccccc3)CC2)c1", "inhibition at 10 µM": "> 75%"}

Item under review: `CN(CCN(C)S(C)(=O)=O)C(=O)n1cc(C(F)(F)F)cn1` . Reported inhibition at 10 µM?
< 25%

Taken from patent US10093630B2.
